Values compiled from ChEMBL document CHEMBL1138130.

tested on: Streptococcus pneumoniae; test: Antibacterial activity against Mef(A) efflux pump containing Streptococcus pneumoniae OC4438; assay type: functional
Overview of recorded MIC for various molecules
Give the quantity in µg/mL, number only.

testsmiles=CC[C@H]1OC(=O)[C@H](C)[C@@H](OC(=O)Nc2ccc(F)cc2)[C@H](C)[C@@H](O[C@@H]2O[C@H](C)C[C@H](N(C)C)[C@H]2O)[C@](C)(OC(=O)NC/C=C/c2ccc(-c3ncccn3)cc2)C[C@@H](C)C(=O)[C@H](C)[C@H]2NC(=O)O[C@@]21C experimentaltarget="Streptococcus pneumoniae" quantitymeasured=MIC numericresult=0.25

Here is another molecule to look at.
[Q] Any idea what its MIC is? The molecule is CC[C@H]1OC(=O)[C@H](C)[C@@H](OC(=O)N(CC)CC)[C@H](C)[C@@H](O[C@@H]2O[C@H](C)C[C@H](N(C)C)[C@H]2O)[C@](C)(OC(=O)NC/C=C/c2ccc(-n3cccn3)cc2)C[C@@H](C)C(=O)[C@H](C)[C@H]2NC(=O)O[C@@]21C
[A] 0.12

---

tested on: Streptococcus pneumoniae; assay: Antibacterial activity against erm(B) ribosomal methylase gene containing Streptococcus pneumoniae OC4051; type: functional
Overview of recorded MIC for various molecules
Give the quantity in µg/mL, number only.

The cases that follow already have their MIC on record.
testsmiles=CC[C@H]1OC(=O)[C@H](C)[C@@H](OC(=O)CC2CC2)[C@H](C)[C@@H](O[C@@H]2O[C@H](C)C[C@H](N(C)C)[C@H]2O)[C@](C)(OC(=O)NC/C=C/c2ccc(-c3ncccn3)cc2)C[C@@H](C)C(=O)[C@H](C)[C@H]2NC(=O)O[C@@]21C quantitymeasured=MIC numericresult=0.12
testsmiles=CCC(=O)O[C@H]1[C@H](C)[C@@H](O[C@@H]2O[C@H](C)C[C@H](N(C)C)[C@H]2O)[C@](C)(OC(=O)NC/C=C/c2ccc(-c3ncccn3)cc2)C[C@@H](C)C(=O)[C@H](C)[C@H]2NC(=O)O[C@]2(C)[C@@H](CC)OC(=O)[C@@H]1C quantitymeasured=MIC numericresult=0.25
testsmiles=CC[C@H]1OC(=O)[C@H](C)[C@@H](OC(C)=O)[C@H](C)[C@@H](O[C@@H]2O[C@H](C)C[C@H](N(C)C)[C@H]2O)[C@](C)(OC(=O)NC/C=C/c2ccc(-c3ncccn3)cc2)C[C@@H](C)C(=O)[C@H](C)[C@H]2NC(=O)O[C@@]21C quantitymeasured=MIC numericresult=0.5
testsmiles=CC[C@H]1OC(=O)[C@H](C)[C@@H](OC(=O)N(C)Cc2cccnc2)[C@H](C)[C@@H](O[C@@H]2O[C@H](C)C[C@H](N(C)C)[C@H]2O)[C@](C)(OC(=O)NC/C=C/c2ccc(-c3ncccn3)cc2)C[C@@H](C)C(=O)[C@H](C)[C@H]2NC(=O)O[C@@]21C quantitymeasured=MIC numericresult=0.5
testsmiles=CC[C@H]1OC(=O)[C@H](C)[C@@H](OC(=O)C(C)C)[C@H](C)[C@@H](O[C@@H]2O[C@H](C)C[C@H](N(C)C)[C@H]2O)[C@](C)(OC(=O)NC/C=C/c2cnc3ccccc3c2)C[C@@H](C)C(=O)[C@H](C)[C@H]2NC(=O)O[C@@]21C quantitymeasured=MIC numericresult=0.06
testsmiles=CC[C@H]1OC(=O)[C@H](C)[C@@H](OC(=O)Cc2ccncc2)[C@H](C)[C@@H](O[C@@H]2O[C@H](C)C[C@H](N(C)C)[C@H]2O)[C@](C)(OC(=O)NC/C=C/c2ccc(-c3ncccn3)cc2)C[C@@H](C)C(=O)[C@H](C)[C@H]2NC(=O)O[C@@]21C quantitymeasured=MIC numericresult=0.25

[Q] Any idea what its MIC is? The molecule is CC[C@H]1OC(=O)[C@H](C)C(=O)[C@H](C)[C@@H](O[C@@H]2O[C@H](C)C[C@H](N(C)C)[C@H]2O)[C@](C)(OC(=O)NC/C=C/c2ccc(-c3ncccn3)cc2)C[C@@H](C)C(=O)[C@H](C)[C@H]2NC(=O)O[C@@]21C
[A] 0.06

[Q] Any idea what its MIC is? The molecule is CC[C@H]1OC(=O)[C@H](C)[C@@H](OC(=O)N(CC)CC)[C@H](C)[C@@H](O[C@@H]2O[C@H](C)C[C@H](N(C)C)[C@H]2O)[C@](C)(OC(=O)NC/C=C/c2ccc(-c3cccnn3)cc2)C[C@@H](C)C(=O)[C@H](C)[C@H]2NC(=O)O[C@@]21C
[A] 0.25

---

tested on: Streptococcus pneumoniae; test: Antibacterial activity against Mef(A) efflux pump containing Streptococcus pneumoniae OC4438; assay type: functional
quantityMeasured: MIC (µg/mL)
Give the quantity in µg/mL, number only.

testsmiles=CCC(=O)O[C@H]1[C@H](C)[C@@H](O[C@@H]2O[C@H](C)C[C@H](N(C)C)[C@H]2O)[C@](C)(OC(=O)NC/C=C/c2ccc(-c3ncccn3)cc2)C[C@@H](C)C(=O)[C@H](C)[C@H]2NC(=O)O[C@]2(C)[C@@H](CC)OC(=O)[C@@H]1C numericresult=0.12

[Q] Any idea what its MIC is? The molecule is CC[C@H]1OC(=O)[C@H](C)[C@@H](OC(=O)Cc2cccnc2)[C@H](C)[C@@H](O[C@@H]2O[C@H](C)C[C@H](N(C)C)[C@H]2O)[C@](C)(OC(=O)NC/C=C/c2ccc(-c3ncccn3)cc2)C[C@@H](C)C(=O)[C@H](C)[C@H]2NC(=O)O[C@@]21C
[A] 0.06

[Q] Any idea what its MIC is? The molecule is CC[C@H]1OC(=O)[C@H](C)[C@@H](OC(=O)Cc2cccnc2)[C@H](C)[C@@H](O[C@@H]2O[C@H](C)C[C@H](N(C)C)[C@H]2O)[C@](C)(OC(=O)NC/C=C/C=C/c2cccnc2)C[C@@H](C)C(=O)[C@H](C)[C@H]2NC(=O)O[C@@]21C
[A] 0.12
